tested on: NCI/ADR-RES ovarian; assay: NCI-60 one-dose screen, 48 h (100 = growth as untreated, 0 = no growth, -100 = all killed); details: 10 µM unless noted
Compounds without any hit were thinned out: in the full panel of roughly 83,000, 20% have a hit.
Here, each record is paired with measured growth data.
Quick reminder: number only, in %, skip the unit.

Please review the following examples before continuing.
>>> print(df.to_string())
                                item_smiles  readout_number
0  CCCCCCNc1nc(N2CCOCC2)c2[nH]c(NCCCCCC)nc2n1             -98
1  O=C(NCCNCCO)c1cc([N+](=O)[O-])cc([N+](=O)[O-])c1O             107
2   Oc1ccc([S+](c2ccc(O)cc2)c2ccc(O)cc2)cc1             112

API: the following record is the query input.
Please give the measured growth for this compound: COc1ccc2c(N)ncc(C#Cc3cc(C(=O)Nc4ccc(CN5CCN(C)CC5)c(C(F)(F)F)c4)cnc3C)c2c1 16

* * *

Test system: MDA-MB-231 breast
Assay: NCI-60 one-dose screen, 48 h (100 = growth as untreated, 0 = no growth, -100 = all killed)
Settings: 10 µM unless noted
Experimental: Cells are grown in 96 well plates and exposed to the test compound for 48 hours. Compounds are tested at a single concentration, which is 10^-5 M for most compounds. The reported endpoint is percent growth (GI% or GIPRCNT), where numbers from 0 - 100% represent growth inhibition, and numbers from -100% - 0 represent cell death. For example, a value of 40 represents 60% growth inhibition. A value of 0 means no net growth occurred over the course of the experiment. […]
The panel holds about 83,000 compounds, 20% with a hit somewhere; the sample as a whole holds those more often. The source made the active and inactive calls. Rule for the calls: active = growth percent below 10; inactive = the rest.
Each entry below carries its recorded growth.

// worked examples, growth included
MOLECULE	RESULT
CCOC(=O)C1CCCN1C(=O)C1(NC(C)=O)CCCC1 (stereo unspecified)	121% (inactive)
CCS(=O)(=O)N[C@@H]1O[C@H](COC(C)=O)C(OC(C)=O)[C@H](OC(C)=O)C1OC(C)=O (stereo partly specified)	110% (inactive)
COC(=O)c1ccc2[nH]c(O)c(C(=Nc3ccc(N(C)C(=O)CN4CCN(C)CC4)cc3)c3ccc(C)cc3)c2c1	-22.9% (active)
COc1ccc(C2=NN(C(=O)c3cc(-c4ccc(C)cc4)nc4ccccc34)C(c3cc(-c4ccccc4)nn3-c3ccccc3)C2)cc1 (stereo unspecified)	99.1% (inactive)
CCC(C)(CC)c1ccc(O)c(C)c1	106% (inactive)
CCC(C)C1NC(=O)C(CC(C)C)NC(=O)C(C)NC(=O)C(C(C)C)NC(=O)C(CCCCN)NC(=O)C(CC(C)C)NC(=O)C(C(C)C)NC(=O)[C@H](C)NC(=O)C(C(C)CC)NC(=O)C(CCCN=C(N)N)NC(=O)C(CCCCN)NC(=O)C(CCCN=C(N)N)NC(=O)C(CCCCN)NC(=O)C([C@H](C)CC)NC(=O)C(CCCCN)NC1=O (stereo partly specified)	-0.693% (active)
COc1cc(/C=C/C(=O)c2ccc(F)cc2)ccc1OCCCCOc1cc2c(cc1OC)C(=O)N1CCCC1C=N2 (stereo unspecified)	-15% (active)
N#Cc1ccc(NC2c3ccccc3CC2O)cc1 (stereo unspecified)	114% (inactive)

Suppose we examine the molecule CCCCCCC(C)N(CC(C)(C)O)C(=O)c1ccc([N+](=O)[O-])cc1 (stereo unspecified) ; what growth value has been reported? 106% (inactive)

Would you kindly repeat that for CC1Cc2cc(F)ccc2-n2cccc21 (stereo unspecified) ? 94% (inactive)

// same read-out, input: CCCNC(=O)Oc1ccc(/C(=C(/C)Cc2ccc(OC)cc2)c2ccc(OCCN3CCCC3)cc2)cc1 57.6% (inactive)

Same lookup for Nc1ncn([C@@H]2O[C@H](CO)[C@@H](O)C2(F)F)c(=O)n1 , please. 80% (inactive)

Check C/C(CCC(=O)O)=N/Nc1ccc([N+](=O)[O-])cc1 too. 51.4% (inactive)

Follow-up entry: C/C=C/C/C=C/[C@H](C)C[C@H](O)[C@@H]1C[C@@H]2O[C@H]2/C=C/[C@@H]2OC(C)(C)O[C@H]2/C=C/C[C@H](C)CC(=O)O1 61.6% (inactive)

Now consider COc1cc(N2C(=O)C=CC2=O)ccc1N1C(=O)C=CC1=O . 116% (inactive)

Entry to check: O=C(/C=C/c1ccc(Cl)cc1)c1ccc(Cl)cc1 118% (inactive)

Same thing, different molecule: CN1NC(c2ccccc2)NN(C)C1=O 108% (inactive)

Field entry: O=C(O)c1ccc(Br)nc1 100% (inactive)

Consider next the molecule Cc1c(O)c(N=Nc2ccc(C(=O)O)c(O)c2)c2ccccc2c1O in the same way. 86.4% (inactive)

* * *

Below, each entry is listed with its recorded growth.
test system: LOX IMVI melanoma; assay: NCI-60 one-dose screen, 48 h (100 = growth as untreated, 0 = no growth, -100 = all killed); conditions: 10 µM unless noted
About 83,000 compounds went through this panel and 20% of them were active in at least one assay; those are over-represented in the sample as a whole.
Value expressed in %; do not type the unit.

>>> print(df.to_string())
                                item_smiles  readout_number
0  O=S(=O)(Cc1cccc2c(CS(=O)(=O)c3ccc(Cl)cc3)cccc12)c1ccc(Cl)cc1            94.1
1      O=C1C(Cl)=C(SC2=NCCN2)C(=O)c2ccccc21              18
2  COc1ccc(C(=O)CN2C(=O)NC(c3ccccc3)(c3ccccc3)C2=O)cc1              98
3  Cc1ncc(C(=O)Nc2ccc(CN3CCN(C)CC3)c(C(F)(F)F)c2)cc1C#Cc1c(N)ncc2ccc(F)cc12           -74.2

Switching to the query record.
# growth lookup, item CC(=O)c1ccc2c(c1)c1ccccc1n2C 97.1

* * *

test system: HCT-116 colon; test: NCI-60 one-dose screen, 48 h (100 = growth as untreated, 0 = no growth, -100 = all killed); conditions: 10 µM unless noted
Compounds without any hit were thinned out: in the full panel of roughly 83,000, 20% have a hit.
ENDPOINT LABEL: growth (%)
Your answer should be a plain number; it is taken to be in %.

// worked examples, growth included
                                   molecule  endpoint_label  result_units  readout_number
0  C[C@H]1C[C@@H](n2cnc3c(N)nccc32)[C@H](O)[C@@H]1O          growth             %            86.8
1  CCN(CC)CCCC(C)Nc1c(C)cnc2cc(Cl)c(C)cc12 (stereo not drawn)          growth             %            56.9
2             Cc1c(CN(C)C)cc(C(C)C)cc1C(C)C          growth             %             104
3  CCOC(=O)C1=C(c2ccccc2)NC(=O)NC1CN1C(=O)c2ccccc2C1=O (stereo not drawn)          growth             %            99.6

Enter reported growth observed with HCT-116 colon for CCCCCCCCCCCCCCCC[n+]1cccc(C#N)c1 24

// repeat for C/C(=N\Nc1ccc(Cl)cn1)c1ccc2ccccc2n1 and report 6.22

Input Cc1c(O)c(N=Nc2ccc(C(=O)O)c(O)c2)c2ccccc2c1O 98.1

* * *

tested on: SK-MEL-2 melanoma; assay: NCI-60 one-dose screen, 48 h; conditions: 10 µM unless noted
About 83,000 compounds went through this panel and 20% of them were active in at least one assay; those are over-represented in the sample as a whole. The source made the active and inactive calls. How the source made its calls: active means growth percent below 10; inactive means the rest.
Just give me one of these, please: t = active, f = inactive

Sample answers from the record:
In [3]: df
Out[3]:
                                   compound  category
0  CC(C)(C)C(=O)CCCCCCCC/C=C/CCCC(O)c1ccco1 (configuration not stated)         f
1  Nc1nc2c(c3cnccc13)C(c1cccc(Cl)c1)Cc1cnccc1-2 (configuration not stated)         f

How did this test come out for COc1cc(/C=C/C(=O)c2ccc(F)cc2)ccc1OCCCCOc1cc2c(cc1OC)C(=O)N1CCCC1C=N2 (configuration not stated) ? t

Another: C/C=C(/C)C(=O)OC1C=C(CO)C(=O)C(OC(=O)C(C)(O)C(C)Cl)C1C(C)C (configuration not stated) t

* * *

tested on: MDA-MB-231 breast; experiment: NCI-60 one-dose screen, 48 h (100 = growth as untreated, 0 = no growth, -100 = all killed); conditions: 10 µM unless noted
The panel holds about 83,000 compounds, 20% with a hit somewhere; the sample as a whole holds those more often.
Examples of compounds with documented growth follow.
Provide the reading as a plain figure in %.

Recorded growth, per entry:
                                   compound  result_units  readout_number
0         Cc1cc2cn3c4ccc(O)cc4nc(N)c3c2cc1C             %            27.3
1  COc1ccc2cnc(N)c(C#Cc3cc(C(=O)Nc4ccc(CN5CCN(C)CC5)c(C(F)(F)F)c4)cnc3C)c2c1             %            9.87
2  CC(=O)OC1/C=C\CC/C=C\C1 (stereo unspecified)             %             111

Requested field: growth. Item: COCC(=O)NNc1[nH]c(-c2ccc(OC)cc2)cc1C#N 102

// same read-out, input: COc1ccc2cc(C(C)C(=O)Nc3ccc(S(=O)(=O)Nc4cc(C)on4)cc3)ccc2c1 (stereo unspecified) 117

Consider next the compound CC(C)(C)OC(=O)N1C/C(=C\c2ccccc2)C(=O)/C(=C/c2ccccc2)C1 in the same way. 79.9
